Examples of variants with documented reverse-splicing fitness follow.
B1: Azoarcus group I ribozyme (parent)
chain: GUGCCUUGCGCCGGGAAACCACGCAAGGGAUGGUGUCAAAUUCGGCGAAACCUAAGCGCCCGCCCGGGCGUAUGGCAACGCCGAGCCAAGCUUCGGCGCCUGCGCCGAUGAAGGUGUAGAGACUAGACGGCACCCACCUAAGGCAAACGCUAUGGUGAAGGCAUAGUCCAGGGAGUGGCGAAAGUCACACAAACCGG

- Variants of: B1
- assay text: reverse-splicing fitness (ratio to wild type); higher = more active; in vitro selection; Mg2+ level not given
Answer with a bare number; do not write a unit.

Recorded results for 5 variants are shown here.
A111U A120U A145G
0.593
A111C A120C A145C C150U C169U
0.048
C82A A111U A120U A145C C150U
0.00779
C82A A111U A145C C150G C169G U176G
0.00637
C82G A111G C150U C169U U176A
0.0147

We next turn to a different variant, shown below.
Ask | Recorded reverse-splicing fitness of C82A A145U C150U U176A , please.
Reply | 0.273

Source of measurements: the RNAGym collection of RNA variant scans (doi:10.1093/molbev/msab373)
